Every entry's value here was drawn from ChEMBL document CHEMBL1671834.

assay: Elimination half life in rat; type: ADME, organism-based; conditions: in vivo

smi	half-life / h
CC(C)n1cc(-c2ccc(C#N)c(F)c2)c2ccc(NS(C)(=O)=O)cc21	19.8
